# ASSAY_TARGET: PUF60 RRMs (human, UniProt Q9UHX1 118-316, C129S;C255A)
# Sequence (Q9UHX1 118-316 C129S/C255A): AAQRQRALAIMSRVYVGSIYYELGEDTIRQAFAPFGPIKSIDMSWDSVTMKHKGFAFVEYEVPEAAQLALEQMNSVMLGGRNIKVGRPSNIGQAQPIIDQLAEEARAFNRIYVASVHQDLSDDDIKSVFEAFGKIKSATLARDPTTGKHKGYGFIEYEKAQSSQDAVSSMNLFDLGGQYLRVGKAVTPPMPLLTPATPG
# ASSAY_OVERVIEW: fluorescence anisotropy; Kd1, two-site sequential model; FA: 50 mM Tris-HCl, 150 mM NaCl, 20 uM EDTA, pH 8.0, room temperature, 10 nM probe; EMSA: same buffer, 5 uM RNA, 5.5% native gel in 0.5X TBE at 4 C; crystals: 0.1 M Tris-HCl pH 8.7, 25% PEG 4000, 5-10 mM BaCl2, 20 C
# APPLIED_CONDITIONS: protein: recombinant; tags: His tag removed by TEV; chain copies: 2; label: 5'-fluorescein
OBSERVED_PROPERTY: Kd

> print(dat)
                                     binder   result
1  GAUGUCAUACUUAUCCUGUCCCUUUUUUUU (ssDNA, deoxyribose backbone with A, U, C, G bases (dU)) [*AdML3']  3.64 µM

Each recorded value in this set is attributed to paper PMC7703929.
